Data origin: patent US9102638B2

System: RPMI-8226
Experiment: In vitro cytotoxicity, NCI screen: RPMI-8226 (Leukemia)
Format: cell-based
Settings: Homo sapiens; RPMI-8226, Leukemia panel, NCI protocol; read-out: GI50 values (μM conc.)
metric: GI50 (µM)
One number for each entry, in µM.

# compound, test-result
measured = [
    ("COc1ccc(/C=C\\c2cc(OC)c(OC)c(OC)c2)cc1OCC(=O)Nc1nc2ccc(OC(F)(F)F)cc2s1 [Compound 8j]", 5.83),
]

For each of the compounds below, note its GI50.
1. COc1ccc(/C=C\c2cc(OC)c(OC)c(OC)c2)cc1OCC(=O)Nc1nc2ccccc2s1 [Compound 8a]
2. COc1ccc(/C=C/C(=O)c2cc(OC)c(OC)c(OC)c2)cc1OCC(=O)Nc1nc2ccc(OC(F)(F)F)cc2s1 [Compound 9j]
3. COc1ccc(C2CC(c3cc(OC)c(OC)c(OC)c3)=NN2C(C)=O)cc1OCC(=O)Nc1nc2ccc(C(F)(F)F)cc2s1 (stereo not shown) [Compound 10i]

1. 0.15
2. 2.02
3. 2.21

For each of the compounds below, note its GI50.
1. COc1ccc(/C=C\c2cc(OC)c(OC)c(OC)c2)cc1OCC(=O)Nc1nc2ccc(F)cc2s1 [Compound 8e]
2. COc1ccc2nc(NC(=O)COc3cc(/C=C\c4cc(OC)c(OC)c(OC)c4)ccc3OC)sc2c1 [Compound 8g]
3. COc1ccc(/C=C\c2cc(OC)c(OC)c(OC)c2)cc1OCC(=O)Nc1nc2ccc(C(F)(F)F)cc2s1 [Compound 8i]

6.36
5.43
5.48

---

Test system: SNB-19
Test: In vitro cytotoxicity, NCI screen: SNB-19 (CNS)
Format: cell-based
Conditions: Homo sapiens; SNB-19, CNS panel, NCI protocol; read-out: GI50 values (μM conc.)
Assignment: determine reported GI50 for the given molecules.
Give bare numbers, in µM.

# molecule, unit-name, GI50
records = [
    ("COc1ccc(/C=C\\c2cc(OC)c(OC)c(OC)c2)cc1OCC(=O)Nc1nc2ccc(C(F)(F)F)cc2s1", "µM", 5.03),
    ("COc1ccc(/C=C\\c2cc(OC)c(OC)c(OC)c2)cc1OCC(=O)Nc1nc2ccc(OC(F)(F)F)cc2s1", "µM", 7.08),
    ("COc1ccc2nc(NC(=O)COc3cc(/C=C\\c4cc(OC)c(OC)c(OC)c4)ccc3OC)sc2c1", "µM", 6.3),
]

For each of the molecules below, note its GI50.
1. COc1ccc(/C=C/C(=O)c2cc(OC)c(OC)c(OC)c2)cc1OCC(=O)Nc1nc2ccc(OC(F)(F)F)cc2s1
2. COc1ccc(C2CC(c3cc(OC)c(OC)c(OC)c3)=NN2C(C)=O)cc1OCC(=O)Nc1nc2ccc(C(F)(F)F)cc2s1 (stereo not drawn) [Compound 10i]

[1.58, 11]

---

Tested on: 786-0
Assay: In vitro cytotoxicity, NCI screen: 786-0 (Renal)
Format: cell-based
Details: Homo sapiens; 786-0, Renal panel, NCI protocol; read-out: GI50 values (μM conc.)
metric: GI50
Answer as a quantity: numeral, then unit.

Some entries whose results are on file:
# compound, GI50
rows = [
    ("COc1ccc(/C=C/C(=O)c2cc(OC)c(OC)c(OC)c2)cc1OCC(=O)Nc1nc2ccc(OC(F)(F)F)cc2s1 [Compound 9j]", "2.26 µM"),
    ("COc1ccc(/C=C\\c2cc(OC)c(OC)c(OC)c2)cc1OCC(=O)Nc1nc2ccc(C(F)(F)F)cc2s1 [Compound 8i]", "6.96 µM"),
    ("COc1ccc(/C=C\\c2cc(OC)c(OC)c(OC)c2)cc1OCC(=O)Nc1nc2ccc(OC(F)(F)F)cc2s1 [Compound 8j]", "54.3 µM"),
    ("COc1ccc2nc(NC(=O)COc3cc(/C=C\\c4cc(OC)c(OC)c(OC)c4)ccc3OC)sc2c1 [Compound 8g]", "7.52 µM"),
]

For each of the compounds below, note its GI50.
1. COc1ccc(/C=C\c2cc(OC)c(OC)c(OC)c2)cc1OCC(=O)Nc1nc2ccccc2s1 [Compound 8a]
2. COc1ccc(C2CC(c3cc(OC)c(OC)c(OC)c3)=NN2C(C)=O)cc1OCC(=O)Nc1nc2ccc(C(F)(F)F)cc2s1 (stereo not shown) [Compound 10i]
3. COc1ccc(/C=C\c2cc(OC)c(OC)c(OC)c2)cc1OCC(=O)Nc1nc2ccc(F)cc2s1 [Compound 8e]

["7.3 µM", "3.58 µM", "7.12 µM"]
